The entries below come with measured activation (% of control) values attached.
- experiment-description: STAT1 signaling activators, primary screen, cell-based, HTS, luciferase reporter (AID 932);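 also: raw ratio to IFN-gamma control signal so 100% means no change and 0% no light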
- test-context: NIH 3T3 STAT1-luciferase reporter, IFN-gamma, luminescence; at 5.5 µM; hits give high values; 100% = IFN-gamma alone, no compound
The campaign covered roughly 200,000 compounds. About 5,100 (2.5%) were called active. The entries come from a sample that favours actives as a whole.
The reply should contain only the number, in %.

Past entries and their recorded results:
query-smiles	observed-result
COc1ccc(Nc2nc(Cl)nc(NCc3ccco3)n2)cc1	104
O=C(Nc1ccccc1Cl)c1ccc2nsnc2c1	133
C=CCNC(=O)/C=C/c1ccc(C(C)C)cc1	120
O=C(OCC(=O)N1CCCC1)c1ccco1	104
O=C(OCC(=O)c1c[nH]c2ccccc12)c1cccc(O)c1	93.7
CCC(=O)Nc1c(C)n[nH]c1C	102
COc1ccc(-n2cnc3cc(C(=O)NC4CCCC4)ccc32)cc1	110
CCN(CC)c1ccc(C(=O)OCC(=O)c2ccco2)cc1	149

Now let's try a different one.
For Cc1cccc(NC(=O)c2ccc3nsnc3c2)c1C the molecule record lists activation (% of control) as 104

----------
The entries below come with measured activation (% of control) values attached.
- experiment-description: STAT1 signaling activators, primary screen, cell-based, HTS, luciferase reporter (AID 932);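 also: raw ratio to IFN-gamma control signal so 100% means no change and 0% no light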
- test-context: NIH 3T3 STAT1-luciferase reporter, IFN-gamma, luminescence; at 5.5 µM; hits give high values; 100% = IFN-gamma alone, no compound
In all, about 200,000 compounds went through this assay and about 5,100 (2.5%) were called active. The entries come from a sample that favours actives as a whole.

compound	activation (% of control)
COc1ccc2c(c1)CCc1c(C(=O)N3CCCC3)noc1-2	131% (active)
Cc1c(Br)ccc(NC(=O)COc2ccccc2C(N)=O)c1C	97.9% (inactive)
CC1=NN(c2ccccc2)C(=O)C1C(=O)c1ccc([N+](=O)[O-])cc1 (stereo unspecified)	94.7% (inactive)
C/C(=N/NC(=O)c1ccc(Br)o1)c1ccc(C)o1	112% (inactive)

For CN(Cc1nc2ccc(F)cc2[nH]1)Cc1nc(CC2CC2)no1 the compound record lists activation (% of control) as 107% (inactive)

For O=C(Nc1ccccc1)c1ccc2c(c1)OCO2 the compound record lists activation (% of control) as 110% (inactive)

For O=C(Oc1cccc(N2C(=O)C3C4c5ccccc5C(c5ccccc54)C3C2=O)c1)c1ccco1 (stereo unspecified) the compound record lists activation (% of control) as 102% (inactive)

----------
The entries below come with measured activation (% of control) values attached.
- experiment-description: STAT1 signaling activators, primary screen, cell-based, HTS, luciferase reporter (AID 932);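 also: raw ratio to IFN-gamma control signal so 100% means no change and 0% no light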
- test-context: NIH 3T3 STAT1-luciferase reporter, IFN-gamma, luminescence; at 5.5 µM; hits give high values; 100% = IFN-gamma alone, no compound
Hit rate of the full screen: of about 200,000 compounds, about 5,100 (2.5%) were called active. For the sample, actives were picked, then their nearest neighbours and some compounds at random.
The reply should contain only the number, in %.

compound	activation (% of control) / %
O=C(CC(=O)N/N=C\c1ccc(F)cc1)NCCc1ccccc1	100
CCN(CC)S(=O)(=O)c1ccc(OC(C)C)c(N)c1	98.6
CC(C)C(c1nnnn1C(C)(C)C)N1CCN(Cc2cccnc2)CC1 (stereo unspecified)	98.8
COCc1ccc(C(=O)N2CCc3c([nH]c4ccccc34)C2c2ccccn2)s1 (stereo unspecified)	94
O=C(COc1ccccc1Cl)Nc1ccc(C(=O)c2ccc(C(=O)O)cc2)cc1	98
CCCCc1ccc(NC(=S)NCCCN2CCOCC2)cc1	96.5
O=C(NNC(=O)C1C2CCC(C2)C1C(=O)O)c1ccc(Cl)cc1 (stereo unspecified)	110
COc1ccc(-n2nc(C(=O)NCC(=O)Nc3cccc(C)n3)c3ccccc3c2=O)cc1	99.9
COCCN(CCOC)C(=S)Nc1ccccc1Cl	91.7
O=C(CN1CCCCC1)Nc1ccccc1Cl	103

Now let's try a different one.
For O=C(Nc1ccccc1Cl)/C(Cl)=C(\Cl)S(=O)c1ccccc1 (stereo unspecified) the compound record lists activation (% of control) as 201
